Structures can show the parent of a compound that is named as a salt.
propertyMeasured: melting point

# input molecule: Cc1cc(N2CCC3(CCOCC3)CC2)cc2c(=O)[nH]c(-c3cc4sccc4cn3)nc12 [Compound 120] ; wanted: its melting point
> 250 °C

// next record Cc1cc(CN2CCOCC2)cc2c(=O)[nH]c(-c3cc(C(F)(F)F)ccn3)nc12 (as salt: hydrochloride) [Compound 115]
> 250 °C

// next record Cc1cnc(-c2nc3ccc(OCCCc4ccncc4)cc3c(=O)[nH]2)cn1 (as salt: hydrochloride) [Compound 13, dihydrochloride]
> 250 °C

// next record COCCOc1ccc2nc(-c3cc4sccc4cn3)[nH]c(=O)c2c1 [Compound 36]
209 to 213 °C

// next record O=c1[nH]c(-c2cccc(C(F)(F)F)n2)nc2ccc(OCCCc3ccncc3)cc12 (as salt: hydrochloride) [Compound 17]
238 to 250 °C

// next record CS(=O)(=O)c1ccc(CCCOc2ccc3nc(-c4cc5ccsc5cn4)[nH]c(=O)c3c2)cc1 [Compound 60]
236 to 237 °C

// next record Cc1cc(CCN2CCOCC2)cc2c(=O)[nH]c(-c3cc(C(F)(F)F)ccn3)nc12 (as salt: hydrochloride) [Compound 117]
> 250 °C

// next record Cc1cc(CC(=O)N2CCOCC2)cc2c(=O)[nH]c(-c3cc4cccn4cn3)nc12 [Compound 134]
254 to 256 °C

// next record COCCN(C)Cc1cc(C)c2nc(-c3cc4sccc4cn3)[nH]c(=O)c2c1.Cl [Compound 151]
205 to 215 °C

// next record Cc1cc(CCN2C3CCC2COC3)cc2c(=O)[nH]c(-c3cc(C(F)(F)F)ccn3)nc12.Cl [Compound 163]
200 to 250 °C

// next record Cc1cc(OC2CCC(=O)N(C)C2)cc2c(=O)[nH]c(-c3cc(C(F)(F)F)ccn3)nc12 (stereo not shown) [Compound 136]
> 250 °C

// next record Cc1cc(CCN2CCC(O)CC2)cc2c(=O)[nH]c(-c3cc(C(F)(F)F)ccn3)nc12.Cl [Compound 164]
115 to 125 °C

// next record O=c1[nH]c(-c2cc(C3CC3)ccn2)nc2ccc(OCCCc3ccncc3)cc12 (as salt: hydrochloride) [Compound 19]
110 to 156 °C
